Values compiled from patent US9326973B2.

Test system: HCV replicon, genotype-1a variant with glutamine 30 changed to glutamate in the NS5A protein
assay: microbe, parasite or virus in culture
Assay type: cell-based, HCV genotype 1a
conditions.used: HCV replicon genotype 1a Q30E (Q→E) variant; test compound titrated with an NS5A-targeting compound (BMS-790052 fixed at 200 nM); ranking of synergist activity
Provide the recorded Fold-Synergistic 1a (Q30E) for the entries that follow.

Consider the worked cases shown below.
{"compound": "COC(=O)N[C@@H](C(=O)NC1(c2nc(-c3ccc(-c4ccc(-c5c[nH]c(C6(NC(=O)[C@H](NC(=O)OC)C(C)C)Cc7ccccc7C6)n5)cc4)cc3)c[nH]2)Cc2ccccc2C1)C(C)C", "assay.result": "<10 fold"}
{"compound": "CC(C)(C)OC(=O)N[C@@H]1CCC[C@H]1C(=O)N[C@H](c1nc(-c2ccc(-c3ccc(-c4c[nH]c([C@@H](NC(=O)[C@@H]5CCC[C@H]5NC(=O)OC(C)(C)C)C(C)(C)C)n4)cc3)cc2)c[nH]1)C(C)(C)C", "assay.result": ">100 fold"}
{"compound": "CC(C)[C@H](NC(=O)C(C)(C)C)c1nc(-c2ccc(-c3ccc(-c4c[nH]c([C@@H](NC(=O)C(C)(C)C)C(C)C)n4)c(F)c3)cc2)c[nH]1", "assay.result": ">100 fold"}
{"compound": "O=C(c1nccc2c(Cl)cccc12)N1CCC[C@H]1c1ncc(-c2ccc(-c3ccc(-c4cnc([C@@H]5CCCN5C(=O)c5nccc6c(Cl)cccc56)[nH]4)cc3)cc2)[nH]1", "assay.result": ">100 fold"}
{"compound": "CC(C)(C)[C@H](NC(=O)C1CCC(=O)CC1)c1nc(-c2ccc(-c3ccc(-c4c[nH]c([C@@H](NC(=O)C5CCC(=O)CC5)C(C)(C)C)n4)cc3)cc2)c[nH]1", "assay.result": ">100 fold"}
{"compound": "CC(C)(C)[C@H](NC(=O)C12CCC(O)(CC1)CC2)c1nc(-c2ccc(-c3ccc(-c4c[nH]c([C@@H](NC(=O)C56CCC(O)(CC5)CC6)C(C)(C)C)n4)cc3)cc2)c[nH]1", "assay.result": ">100 fold"}

Provide the reported Fold-Synergistic 1a (Q30E) of each entry below, same order.
1. COc1ccc(CNC(C)(C)C(=O)N[C@H](c2nc(-c3ccc(-c4ccc(-c5c[nH]c([C@@H](NC(=O)C(C)(C)NCc6ccc(OC)cc6)C(C)(C)C)n5)cc4)cc3)c[nH]2)C(C)(C)C)cc1
2. CCCC(C)(C)C(=O)N1CCC[C@H]1c1ncc(-c2ccc(-c3ccc(-c4cnc([C@@H]5CCCN5C(=O)C(C)(C)CCC)[nH]4)cc3)cc2)[nH]1
3. COC(C)(C(=O)N[C@H](c1nc(-c2ccc(-c3ccc(-c4c[nH]c([C@@H](NC(=O)C(C)(OC)C5(O)CCC(F)(F)CC5)C(C)(C)C)n4)cc3)cc2)c[nH]1)C(C)(C)C)C1(O)CCC(F)(F)CC1 (stereo partly shown)
4. COC(=O)N[C@H](C(=O)N[C@H](c1nc(-c2ccc3cc(-c4ccc(-c5cnc([C@@H](NC(=O)[C@@H](NC(=O)OC)C(C)C)C(C)(C)C)[nH]5)cc4)ccc3c2)c[nH]1)C(C)(C)C)C(C)C

>100 fold
<10 fold
>100 fold
<10 fold
